Items are presented alongside their recorded IC50.
Target: EGFR (L858R T790M C797S) (Homo sapiens, UniProt P00533, C797S/L858R/T790M)
Construct: purchased SignalChem E10-122VG
Sequence (P00533 25-1210 T790M/C797S/L858R): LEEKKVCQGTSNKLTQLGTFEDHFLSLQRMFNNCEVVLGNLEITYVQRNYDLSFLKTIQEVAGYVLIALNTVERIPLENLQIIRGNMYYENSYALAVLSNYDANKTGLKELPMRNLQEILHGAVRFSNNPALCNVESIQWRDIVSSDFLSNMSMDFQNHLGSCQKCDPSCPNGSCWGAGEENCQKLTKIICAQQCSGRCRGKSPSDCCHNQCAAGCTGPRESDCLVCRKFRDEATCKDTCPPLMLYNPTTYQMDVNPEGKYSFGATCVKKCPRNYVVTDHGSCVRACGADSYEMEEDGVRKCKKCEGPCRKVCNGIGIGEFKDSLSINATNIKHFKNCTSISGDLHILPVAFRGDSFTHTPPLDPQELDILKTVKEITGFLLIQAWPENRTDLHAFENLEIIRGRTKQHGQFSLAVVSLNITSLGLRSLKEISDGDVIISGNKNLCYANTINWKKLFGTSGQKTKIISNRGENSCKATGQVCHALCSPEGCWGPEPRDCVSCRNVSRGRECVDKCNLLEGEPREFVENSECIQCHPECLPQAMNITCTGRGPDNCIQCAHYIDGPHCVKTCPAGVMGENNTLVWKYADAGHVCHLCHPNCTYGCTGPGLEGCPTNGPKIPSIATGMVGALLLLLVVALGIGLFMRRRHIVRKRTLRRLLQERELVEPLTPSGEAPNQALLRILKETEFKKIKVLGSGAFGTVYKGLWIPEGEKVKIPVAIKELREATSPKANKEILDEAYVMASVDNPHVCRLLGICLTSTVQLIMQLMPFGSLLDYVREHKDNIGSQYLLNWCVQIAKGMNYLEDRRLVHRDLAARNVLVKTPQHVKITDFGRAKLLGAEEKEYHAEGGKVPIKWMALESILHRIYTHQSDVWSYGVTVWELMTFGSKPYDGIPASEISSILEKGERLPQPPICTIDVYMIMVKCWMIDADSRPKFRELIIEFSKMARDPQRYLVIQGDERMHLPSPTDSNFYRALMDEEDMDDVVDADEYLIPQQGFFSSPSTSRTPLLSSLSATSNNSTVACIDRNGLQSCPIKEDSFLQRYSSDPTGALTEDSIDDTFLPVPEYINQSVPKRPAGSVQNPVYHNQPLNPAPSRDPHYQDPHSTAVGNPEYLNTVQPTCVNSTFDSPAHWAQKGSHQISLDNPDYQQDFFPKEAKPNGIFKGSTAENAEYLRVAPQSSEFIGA
Test: Biochemical EGFR inhibition assay (Caliper mobility shift), EGFR LRTMCS
Conditions: LRTMCS (PH) IC50 (nM) @ 1 mM ATP (Num), EGFR LRTMCS mutant
Observable: IC50

- Molecule: "CC(C)c1cnc(N2C[C@H](O)[C@H]2C)c2cnc(Nc3ccnc(N4CC[C@H](O)[C@H](F)C4)n3)cc12"
  Result: "< 15 nM"
- Molecule: "CO[C@@H]1CCN(c2nccc(Nc3cc4c(C(C)C)cnc(N5C[C@H](O)[C@H]5C)c4cn3)n2)C[C@@H]1F"
  Result: "< 15 nM"
- Molecule: "CNC(=O)C1(F)CN(c2ncc(C(C)C)c3cc(Nc4ccnc(N5CC[C@@H](O)[C@@](C)(F)C5)n4)ncc23)C1"
  Result: "20 to 30 nM"
- Molecule: "COC(=O)NCC1CN(c2ncc(C(C)C)c3cc(Nc4ccnc(N5CC[C@@H](O)[C@@](C)(F)C5)n4)ncc23)C1"
  Result: "< 15 nM"
- Molecule: "COCC1(F)CN(c2ncc(C(C)C)c3cc(Nc4ccnc(N5CC[C@@H](O)[C@@](C)(F)C5)n4)ncc23)C1"
  Result: "20 to 30 nM"
- Molecule: "CC(C)c1ccc(N2CC(c3nncn3C)C2)c2cnc(Nc3ccnc(N4CC[C@@H](O)[C@@](C)(F)C4)n3)cc12"
  Result: "< 15 nM"
- Molecule: "CC(C)c1cnc(N2C[C@H](O)[C@H]2C)c2cnc(Nc3ccnc(N4CC[C@@H](O)[C@@H](F)C4)n3)cc12"
  Result: "< 15 nM"
- Molecule: "CC(C)c1ncc(N2CCC23CN(C)C3)c2cnc(Nc3ccnc(N4CC[C@@H](O)[C@@](C)(F)C4)n3)cc12"
  Result: "20 to 30 nM"
- Molecule: "CC(C)c1cnc(N2C[C@H](OC(F)F)[C@H]2C)c2cnc(Nc3ccnc(N4CC[C@@H](O)[C@@](C)(F)C4)n3)cc12"
  Result: "20 to 30 nM"
- Molecule: "C[C@H](CO)c1cnc(N2CC[C@H]2C)c2cnc(Nc3ccnc(N4C[C@@H](F)[C@@H](O)C(C)(C)C4)n3)cc12 (single isomer, unassigned) [Example 187]"
  Result: "30 to 100 nM"
- Molecule: "CC(C)c1cnc(-c2nnc(C(C)(C)O)o2)c2cnc(Nc3ccnc(N4CC[C@@H](O)[C@@](C)(F)C4)n3)cc12"
  Result: "< 15 nM"
- Molecule: "CC(C)c1cnc(-c2ncn(C)n2)c2cnc(Nc3ccnc(N4CC[C@@H](O)[C@@](C)(F)C4)n3)cc12"
  Result: "< 15 nM"
- Molecule: "CC(C)c1cnc(N2CC[C@H]2C)c2cnc(Nc3ccnc(N4CC[C@@H](OCCO)[C@@H](F)C4)n3)cc12"
  Result: "< 15 nM"
